experimental-system: Beta Secretase enzyme (BACE) (Homo sapiens)
Sequence (P56817 46-501): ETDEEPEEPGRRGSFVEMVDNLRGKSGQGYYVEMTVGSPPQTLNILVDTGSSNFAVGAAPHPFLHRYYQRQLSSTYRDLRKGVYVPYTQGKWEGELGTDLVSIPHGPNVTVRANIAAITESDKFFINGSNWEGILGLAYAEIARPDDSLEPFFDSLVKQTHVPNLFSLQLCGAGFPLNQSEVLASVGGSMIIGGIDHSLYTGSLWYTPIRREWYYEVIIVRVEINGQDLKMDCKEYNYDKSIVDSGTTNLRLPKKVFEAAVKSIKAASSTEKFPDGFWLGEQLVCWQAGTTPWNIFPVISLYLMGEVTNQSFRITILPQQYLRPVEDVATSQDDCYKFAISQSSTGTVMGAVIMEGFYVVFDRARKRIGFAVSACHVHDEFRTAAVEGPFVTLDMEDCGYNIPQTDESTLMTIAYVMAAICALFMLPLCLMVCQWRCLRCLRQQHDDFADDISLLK
test-name: In vitro enzymatic BACE FRET assay
Type: biochemical
condition-notes: average IC50, in vitro enzymatic BACE FRET assay; read-out: BACE1 FRET assay IC50
observed-property: IC50 (nM)

compound-smiles: C[C@H]1C[C@@H]2[C@](C)(N=C(N)C(C)(C)S2(=O)=O)c2cc(NC(=O)c3ccc(C(F)(F)F)cn3)ccc2O1
experimental-system: Beta Secretase enzyme (BACE) (Homo sapiens)
units-label: nM
IC50: 12

compound-smiles: Cc1cc(C(F)(F)F)cnc1C(=O)Nc1ccc2c(c1)[C@@]1(C)N=C(N)C(C)(C)S(=O)(=O)[C@H]1CC(C)(C)O2
experimental-system: Beta Secretase enzyme (BACE) (Homo sapiens)
units-label: nM
IC50: 18

a. COc1cnc(C(=O)Nc2ccc3c(c2)[C@@]2(C)N=C(N)C(C)(C)S(=O)(=O)[C@@H]2CC(C)(C)O3)cn1
b. Cc1cc(OC(F)F)cnc1C(=O)Nc1ccc2c(c1)[C@@]1(C)N=C(N)C(C)(C)S(=O)(=O)[C@@H]1CCS2
c. COc1cnc2c(Nc3ccc4c(c3)[C@@]3(C)N=C(N)C(C)(C)S(=O)(=O)[C@@H]3CCO4)nccc2n1
d. CC(C)Oc1cnc2c(Nc3ccc4c(c3)[C@@]3(CF)N=C(N)C(C)(C)S(=O)(=O)[C@@H]3CCO4)nccc2n1
INPUT: Your job: order these 4 records by IC50, ascending. Answer by listing the labels in the requested order.
OUTPUT: b, c, a, d
(b: 2 nM, c: 11 nM, a: 25 nM, d: 227 nM)

---

experimental-system: Cathepsin D (Cat D) (Homo sapiens, UniProt P07339)
Sequence (P07339 65-412, species assumed): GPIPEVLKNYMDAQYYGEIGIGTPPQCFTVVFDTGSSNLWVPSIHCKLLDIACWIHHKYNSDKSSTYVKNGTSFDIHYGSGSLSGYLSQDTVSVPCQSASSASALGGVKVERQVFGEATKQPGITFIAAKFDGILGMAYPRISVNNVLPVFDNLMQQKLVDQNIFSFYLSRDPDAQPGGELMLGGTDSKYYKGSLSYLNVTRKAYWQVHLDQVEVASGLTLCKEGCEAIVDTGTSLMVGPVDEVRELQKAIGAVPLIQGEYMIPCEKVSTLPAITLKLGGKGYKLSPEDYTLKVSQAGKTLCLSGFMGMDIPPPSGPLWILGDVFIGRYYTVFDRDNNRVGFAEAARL
test-name: In vitro enzymatic Cathepsin D (Cat D) FRET assay
Type: biochemical
condition-notes: Cathepsin D FRET assay; read-out: CatD IC50
pIC50: −log10 of the molar value.
observed-property: pIC50

A. COc1cnc(C(=O)Nc2ccc3c(c2)[C@@]2(C)N=C(N)C(C)(C)S(=O)(=O)[C@@H]2CCS3)cn1
B. CC1(C)C[C@@H]2[C@](C)(N=C(N)C(C)(C)S2(=O)=O)c2cc(NC(=O)c3ncc(C(F)(F)F)cc3Cl)ccc2O1
INPUT: // pick min by pIC50: A , B Write down the label attached to your selection.
OUTPUT: B
(B: 2.99, A: 3.77)

a. CC#CCOc1cnc(C(=O)Nc2ccc3c(c2)[C@@]2(C)N=C(N)C(C)(C)S(=O)(=O)[C@@H]2CC(C)(C)O3)cn1
b. CC(C#N)Oc1ccc(C(=O)Nc2ccc3c(c2)[C@@]2(C)N=C(N)C(C)(C)S(=O)(=O)[C@@H]2CCO3)nc1 (mixture of isomers)
c. Cc1cc(C(F)(F)F)cnc1C(=O)Nc1ccc2c(c1)[C@@]1(CF)N=C(N)C(C)(C)S(=O)(=O)[C@@H]1CCO2
INPUT: Your job: order these 3 records by pIC50, ascending. Answer by listing the labels in the requested order.
OUTPUT: c, b, a

P. C[C@H]1C[C@@H]2[C@](C)(N=C(N)C(C)(C)S2(=O)=O)c2cc(Nc3nccc4cc(C(F)(F)F)cnc34)ccc2O1
Q. C[C@H]1C[C@@H]2[C@](C)(N=C(N)C(C)(C)S2(=O)=O)c2cc(NC(=O)c3cnc(OCc4cnn(C)c4)cn3)ccc2O1
INPUT: Higher pIC50: P or Q ? Write down the label attached to your selection.
OUTPUT: P
(P: 3.35, Q: 2.88)

A. COCCOc1cnc2c(Nc3ccc4c(c3)[C@@]3(C)N=C(N)C(C)(C)S(=O)(=O)[C@@H]3C[C@H](C)O4)nccc2n1
B. C[C@H]1C[C@@H]2[C@](C)(N=C(N)C(C)(C)S2(=O)=O)c2cc(NC(=O)c3ccc(C#N)cn3)ccc2O1
C. C[C@H]1C[C@@H]2[C@](C)(N=C(N)C(C)(C)S2(=O)=O)c2cc(NC(=O)c3cnc(OCc4ccn(C)n4)cn3)ccc2O1
INPUT: Your job: order these 3 records by pIC50, ascending. Answer by listing the labels in the requested order.
OUTPUT: B, C, A
(B: 2.94, C: 3.23, A: 3.52)

---

experimental-system: Cathepsin D (Cat D) (Homo sapiens)
test-name: In vitro enzymatic Cathepsin D (Cat D) FRET assay
Assay type: biochemical
condition-notes: read-out: CatD IC50
pIC50: −log10 of the molar value.
observed-property: pIC50

Below, each entry is followed by its recorded pIC50 result.
molecule: COc1cccnc1Nc1ccc2c(c1)[C@@]1(C)N=C(N)C(C)(C)S(=O)(=O)[C@@H]1CCO2 [Example 13]
pIC50: 3.43
--
molecule: C[C@H]1C[C@@H]2[C@](C)(N=C(N)C(C)(C)S2(=O)=O)c2cc(Nc3nccc4cc(C#N)cnc34)ccc2O1 [Example 56]
pIC50: 3.26
--
molecule: CC#C[C@@H](C)Oc1ccc(C(=O)Nc2ccc3c(c2)[C@@]2(C)N=C(N)C(C)(C)S(=O)(=O)[C@@H]2CCO3)nc1 (single isomer, unassigned) [Example 68]
pIC50: 2.70

a. Cc1cc(OCC2CC2)cnc1C(=O)Nc1ccc2c(c1)[C@@]1(C)N=C(N)C(C)(C)S(=O)(=O)[C@@H]1CCO2 [Example 170]
b. CC1(C)C(N)=N[C@]2(C)c3cc(Nc4ncnc5cc(Cl)cnc45)ccc3OCC[C@H]2S1(=O)=O [Example 176]
c. CC#C[C@@H](C)Oc1cnc(C(=O)Nc2ccc3c(c2)[C@@]2(C)N=C(N)C(C)(C)S(=O)(=O)[C@@H]2CCO3)cn1 [Example 16]
INPUT: Order the items by recorded pIC50; the first position goes to the largest value. Answer by listing the labels in the requested order.
OUTPUT: b, c, a

---

experimental-system: Cathepsin D (Cat D) (Homo sapiens)
test-name: In vitro enzymatic Cathepsin D (Cat D) FRET assay
Type: biochemical
condition-notes: Cathepsin D FRET assay; read-out: CatD IC50
pIC50: −log10 of the molar value.
observed-property: pIC50

A. Cc1cc(OC(F)F)cnc1C(=O)Nc1ccc2c(c1)[C@@]1(C)N=C(N)C(C)(C)S(=O)(=O)[C@@H]1CCO2 [Example 157]
B. Cc1cc(OC(F)F)cnc1C(=O)Nc1ccc2c(c1)[C@@]1(C)N=C(N)C(C)(C)S(=O)(=O)[C@]1(F)CCO2 [Example 95]
INPUT: Higher pIC50: A or B ? Write down the label attached to your selection.
OUTPUT: B

P. C#CCOc1cnc2c(Nc3ccc4c(c3)[C@@]3(C)N=C(N)C(C)(C)S(=O)(=O)[C@@H]3CC(C)(C)O4)nccc2n1 [Example 141]
Q. CC1(C)C(N)=N[C@]2(CF)c3cc(NC(=O)c4ccc(OC(F)F)cn4)ccc3OCC[C@H]2S1(=O)=O [Example 123]
INPUT: // pick min by pIC50: P , Q Write down the label attached to your selection.
OUTPUT: Q
(Q: 2.39, P: 3.41)

---

experimental-system: Beta Secretase enzyme (BACE) (Homo sapiens)
test-name: In vitro enzymatic BACE FRET assay
Type: biochemical
condition-notes: average IC50, in vitro enzymatic BACE FRET assay; read-out: BACE1 FRET assay IC50
observed-property: IC50 (µM)

compound-smiles: Cc1cc(C(F)(F)F)cnc1C(=O)Nc1ccc2c(c1)[C@@]1(CF)N=C(N)C(C)(C)S(=O)(=O)[C@@H]1C[C@H](C)O2
observed-property: IC50
result-number: 0.014

1. COc1cnc(C(=O)Nc2ccc3c(c2)[C@@]2(C)N=C(N)C(C)(C)S(=O)(=O)[C@@H]2CCO3)c(C)c1
2. CC1(C)C(N)=N[C@]2(CF)c3cc(NC(=O)c4cnc(C(F)(F)F)cn4)ccc3OCC[C@@H]2S1(=O)=O
3. C[C@H]1C[C@@H]2[C@](C)(N=C(N)C(C)(C)S2(=O)=O)c2cc(NC(=O)c3ncc(Cl)cc3CO)ccc2O1
4. CC1(C)C(N)=N[C@]2(C)c3cc(NC(=O)c4cnc(OCC(F)F)cn4)ccc3OCC[C@H]2S1(=O)=O
5. C#CCOc1cnc(C(=O)Nc2ccc3c(c2)[C@@]2(C)N=C(N)C(C)(C)S(=O)(=O)[C@@H]2CC(C)(C)O3)cn1
INPUT: Order the items by recorded IC50; the first position goes to the largest value. Answer by listing the labels in the requested order.
OUTPUT: 2, 1, 4, 3, 5

---

experimental-system: Beta Secretase enzyme (BACE) (Homo sapiens)
test-name: In vitro enzymatic BACE FRET assay
Assay type: biochemical
condition-notes: average IC50, in vitro enzymatic BACE FRET assay; read-out: BACE1 FRET assay IC50
Protocol: In Vitro Enzymatic BACE FRET (Fluorescence Resonance Energy Transfer) Assay (Enzyme Assay Data in the Example Table I) The assay buffer used in this screen is 0.05 M acetate, pH 4.2, 10% DMSO final, 100 uM genapol (which is a nonionic detergent, below its Critical Micelle Concentration). […] The FRET assay is terminated with by addition of Tris buffer, which raises the pH to neutrality, and the fluorescence is determined. […]
observed-property: IC50 (nM)

molecule: C[C@H]1C[C@@H]2[C@](C)(N=C(N)C(C)(C)S2(=O)=O)c2cc(NC(=O)c3ccc(C#N)cn3)ccc2O1
IC50 [nM]: 3

molecule: COc1cnc2c(Nc3ccc4c(c3)[C@@]3(CF)N=C(N)C(C)(C)S(=O)(=O)[C@@H]3CCO4)nccc2n1
IC50 [nM]: 37

molecule: Cc1cc(C(F)(F)F)cnc1C(=O)Nc1ccc2c(c1)[C@@]1(C)N=C(N)C(C)(C)S(=O)(=O)[C@@H]1CCS2
IC50 [nM]: 2

a. C[C@H]1C[C@@H]2[C@](C)(N=C(N)C(C)(C)S2(=O)=O)c2cc(NC(=O)c3ccc(Cl)cn3)ccc2O1
b. CC1(C)C(N)=N[C@]2(C)c3cc(NC(=O)c4ccc(OCC(F)F)cn4)ccc3OCC[C@H]2S1(=O)=O
c. COc1cnc(C(=O)Nc2ccc3c(c2)[C@@]2(CF)N=C(N)C(C)(C)S(=O)(=O)[C@@H]2C[C@H](C)O3)cn1
INPUT: Order the items by recorded IC50; the first position goes to the largest value. Answer by listing the labels in the requested order.
OUTPUT: c, b, a

P. COc1cnc(C(=O)Nc2ccc3c(c2)[C@@]2(C)N=C(N)C(C)(C)S(=O)(=O)[C@@H]2CC(C)(C)O3)c(C)n1
Q. Cc1cc(Cl)cnc1C(=O)Nc1ccc2c(c1)[C@@]1(C)N=C(N)C(C)(C)S(=O)(=O)[C@@H]1CCS2
R. CC1(C)C(N)=N[C@]2(CF)c3cc(NC(=O)c4cnc(C(F)(F)F)cn4)ccc3OCC[C@H]2S1(=O)=O
S. C#CCOc1cnc2c(Nc3ccc4c(c3)[C@@]3(C)N=C(N)C(C)(C)S(=O)(=O)[C@@H]3C[C@H](C)O4)nccc2n1
T. Cc1cc(COc2cnc3c(Nc4ccc5c(c4)[C@@]4(C)N=C(N)C(C)(C)S(=O)(=O)[C@@H]4C[C@H](C)O5)nccc3n2)on1
INPUT: Order the items by recorded IC50; the first position goes to the largest value. Answer by listing the labels in the requested order.
OUTPUT: R, P, T, S, Q
(R: 184 nM, P: 29 nM, T: 18 nM, S: 2 nM, Q: 1 nM)
